target_or_system: von Hippel-Lindau disease tumor suppressor/Histone deacetylase 1/Lysine-specific histone demethylase 1A/REST corepressor 1 (Homo sapiens, UniProt O60341+P40337+Q13547+Q9UKL0)
Sequence (P40337 whole entry, looked up, other chains not shown): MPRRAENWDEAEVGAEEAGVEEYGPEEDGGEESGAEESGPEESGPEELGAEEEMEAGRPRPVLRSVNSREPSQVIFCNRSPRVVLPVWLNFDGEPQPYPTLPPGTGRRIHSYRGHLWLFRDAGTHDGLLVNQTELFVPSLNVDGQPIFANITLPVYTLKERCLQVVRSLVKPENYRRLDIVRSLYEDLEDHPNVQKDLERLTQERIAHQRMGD
Sequence (Q13547 whole entry, looked up, other chains not shown): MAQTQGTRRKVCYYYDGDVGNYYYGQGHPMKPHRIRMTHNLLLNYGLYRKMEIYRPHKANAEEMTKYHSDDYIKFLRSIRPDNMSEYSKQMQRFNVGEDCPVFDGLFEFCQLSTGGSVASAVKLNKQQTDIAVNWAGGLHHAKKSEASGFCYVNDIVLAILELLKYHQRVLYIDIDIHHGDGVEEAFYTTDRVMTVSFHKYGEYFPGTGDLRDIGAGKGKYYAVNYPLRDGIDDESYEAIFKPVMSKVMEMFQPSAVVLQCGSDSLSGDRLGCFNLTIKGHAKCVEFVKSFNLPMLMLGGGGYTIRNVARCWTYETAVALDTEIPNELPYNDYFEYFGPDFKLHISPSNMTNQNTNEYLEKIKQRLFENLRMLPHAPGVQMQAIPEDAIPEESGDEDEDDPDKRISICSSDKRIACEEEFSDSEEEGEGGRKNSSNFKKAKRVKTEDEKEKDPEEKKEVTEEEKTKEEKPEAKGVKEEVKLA
Sequence (Q9UKL0 whole entry, looked up, other chains not shown): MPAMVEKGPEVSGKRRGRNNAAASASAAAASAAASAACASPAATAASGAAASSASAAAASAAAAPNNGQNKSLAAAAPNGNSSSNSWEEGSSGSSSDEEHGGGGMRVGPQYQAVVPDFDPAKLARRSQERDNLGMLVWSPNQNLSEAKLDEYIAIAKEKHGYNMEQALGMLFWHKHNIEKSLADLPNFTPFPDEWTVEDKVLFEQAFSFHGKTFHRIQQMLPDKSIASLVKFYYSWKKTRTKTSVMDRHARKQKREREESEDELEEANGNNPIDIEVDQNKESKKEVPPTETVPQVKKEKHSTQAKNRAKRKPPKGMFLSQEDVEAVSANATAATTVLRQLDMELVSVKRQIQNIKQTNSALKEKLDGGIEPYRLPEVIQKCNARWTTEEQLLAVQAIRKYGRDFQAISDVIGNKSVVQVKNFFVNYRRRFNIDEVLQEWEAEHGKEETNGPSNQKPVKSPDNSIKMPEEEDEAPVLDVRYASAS
protocol: Protac activity at VHL/LSD1/HDAC1/CoREST complex interaction in human ES1 cells assessed as HDAC1 degradation by fluorescence based assay
Type: cell-based
pIC50: −log10 of the molar value.
readout_label: pIC50

>>> endpoint_value("Cc1ncsc1-c1ccc(CNC(=O)[C@@H]2C[C@@H](O)CN2C(=O)[C@@H](NC(=O)CCCCCCCCCCC(=O)Nc2ccc(C(=O)Nc3ccccc3N)cc2)C(C)(C)C)cc1")
6.30

----------
Tested on: Jurkat
protocol: Anticancer activity against human Jurkat cells assessed as cell growth inhibition
Type: functional, cell-based
readout_label: IC50 (nM)

>>> endpoint_value("O=C(/C=C/c1cccnc1)NCCCCC1CCN(C(=O)c2ccc(N3CCN(CCCCCC#Cc4cccc5c4CN(C4CCC(=O)NC4=O)C5=O)CC3)cc2)CC1 (stereo unspecified)")
4.46
